src = patent US9579314B2

pIC50: −log10 of the molar value.
Observed pIC50 values for Human β2 adrenoceptor (Homo sapiens) are listed in what follows.

INSERT INTO assay_data (molecule, recordedmeasurement) VALUES
  ('COc1cc(C(=O)N[C@H]2C[C@H](NC(=O)COc3cccc([C@](O)(C(=O)OCC4CCN(Cc5ccccc5)CC4)c4ccccc4)c3)C2)c(F)cc1CNC[C@H](O)c1ccc(O)c2[nH]c(=O)ccc12 [Compound 142]', '> 9.52'),
  ('CCc1ccccc1C(O)(C(=O)OCC1CCN(Cc2ccccc2)CC1)c1cccc(OCCCCCNC[C@H](O)c2ccc(O)c3[nH]c(=O)ccc23)c1 (stereo partly shown) [Compound 8]', '8.52 to 9.52'),
  ('O=C(NCCCOc1cccc([C@](O)(C(=O)OCC2CCN(Cc3ccccc3)CC2)c2ccccc2)c1)c1ccc(CNC[C@H](O)c2ccc(O)c3[nH]c(=O)ccc23)cn1 [Compound 32K]', '> 9.52'),
  ('O=C(OCC1CCN(Cc2ccccc2)CC1)[C@](O)(c1ccccc1)c1cccc(OCCCCCCNCC(O)c2ccc(O)c3[nH]c(=O)ccc23)c1 (stereo in doubt) [Compound 29]', '> 9.52');

Would you kindly share the measured pIC50 for O=C(NCCCCNC[C@H](O)c1ccc(O)c2[nH]c(=O)ccc12)c1cccc(C(O)(C(=O)OCC2CCN(Cc3ccccc3)CC2)c2ccccc2)c1 (stereo partly shown) [Compound 47, diformate] ?
> 9.52

Can you check COc1cc(C(=O)N2CCC3(CCN(C(=O)COc4cccc([C@](O)(C(=O)OCC5CCN(Cc6ccccc6)CC5)c5ccccc5)c4)CC3)CC2)ccc1CNC[C@H](O)c1ccc(O)c2[nH]c(=O)ccc12 [Compound 79] next?
> 9.52

Can you check O=C(COc1cccc([C@](O)(C(=O)OCC2CCN(Cc3ccccc3)CC2)c2ccccc2)c1)N[C@H]1CC[C@H](NC(=O)c2ccc(CCNC[C@H](O)c3ccc(O)c4[nH]c(=O)ccc34)cc2)CC1 [Compound 90] next?
8.52 to 9.52

Can you check O=C(COc1cccc([C@](O)(C(=O)OCC2CCN(Cc3ccccc3)CC2)c2ccccc2)c1)N[C@@H]1CCCN(C(=O)c2ccc(CCNC[C@H](O)c3ccc(O)c4[nH]c(=O)ccc34)cc2)C1 [Compound 105] next?
8.52 to 9.52

Can you check O=C(COc1cccc([C@](O)(C(=O)OCC2CCN(Cc3ccccc3)CC2)c2ccccc2)c1)NCCNC(=O)c1ccc(CCNC[C@H](O)c2ccc(O)c3[nH]c(=O)ccc23)cc1 [Compound 103] next?
8.52 to 9.52

Can you check COc1cc(C(=O)N[C@H]2C[C@H](NC(=O)c3ccc(COc4cccc([C@](O)(C(=O)OCC5CCN(Cc6ccccc6)CC5)c5ccccc5)c4)cc3)C2)ccc1CNC[C@H](O)c1ccc(O)c2[nH]c(=O)ccc12 [Compound 124] next?
8.52 to 9.52

----------
Consider the following molecules and their measured pIC50 readings.
Target: Human M3 receptor (Homo sapiens, UniProt P20309)
Sequence (P20309 whole entry): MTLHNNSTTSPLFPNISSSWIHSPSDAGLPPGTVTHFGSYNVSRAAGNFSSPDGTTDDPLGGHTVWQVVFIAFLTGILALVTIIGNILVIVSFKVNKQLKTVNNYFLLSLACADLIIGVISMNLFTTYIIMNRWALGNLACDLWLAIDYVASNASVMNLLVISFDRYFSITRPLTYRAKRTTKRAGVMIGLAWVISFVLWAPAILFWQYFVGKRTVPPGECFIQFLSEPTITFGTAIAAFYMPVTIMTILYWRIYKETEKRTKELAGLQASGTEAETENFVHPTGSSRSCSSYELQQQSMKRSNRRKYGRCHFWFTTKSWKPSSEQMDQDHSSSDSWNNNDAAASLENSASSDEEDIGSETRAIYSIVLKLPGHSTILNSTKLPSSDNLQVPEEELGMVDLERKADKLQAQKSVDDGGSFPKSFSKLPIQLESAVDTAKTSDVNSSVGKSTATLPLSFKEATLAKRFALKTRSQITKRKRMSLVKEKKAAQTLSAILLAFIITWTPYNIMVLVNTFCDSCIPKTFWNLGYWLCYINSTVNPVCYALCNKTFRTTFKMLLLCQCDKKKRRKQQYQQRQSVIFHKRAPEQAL
Conditions: read-out: M3 binding affinity
pIC50: −log10 of the molar value.

Worked examples follow.
INSERT INTO assay_data (molecule, valuekind, recordedmeasurement) VALUES
  ('O=C(COc1cccc([C@](O)(C(=O)OCC2CCN(Cc3ccccc3)CC2)c2ccccc2)c1)N[C@H]1CC[C@H](NC(=O)c2ccc(CNC[C@H](O)c3ccc(O)c4[nH]c(=O)ccc34)cc2)CC1 [Compound 62]', 'pIC50', '> 9.52'),
  ('COc1cc(C(=O)NCCNC(=O)c2ccc(COc3cccc([C@](O)(C(=O)OCC4CCN(Cc5ccccc5)CC4)c4ccccc4)c3)cc2)ccc1CNC[C@H](O)c1ccc(O)c2[nH]c(=O)ccc12 [Compound 126]', 'pIC50', '8.52 to 9.52'),
  ('COc1cc(NC(=O)COc2cccc([C@](O)(C(=O)OCC3CCN(Cc4ccccc4)CC3)c3ccccc3)c2)ccc1CNC[C@H](O)c1ccc(O)c2[nH]c(=O)ccc12 [Compound 42A]', 'pIC50', '> 9.52'),
  ('COc1cc(C(=O)N2CC(NC(=O)COc3cccc([C@](O)(C(=O)OCC4CCN(Cc5ccccc5)CC4)c4ccccc4)c3)C2)ccc1CNC[C@H](O)c1ccc(O)c2[nH]c(=O)ccc12 [Compound 78]', 'pIC50', '> 9.52'),
  ('O=C(COc1cccc([C@](O)(C(=O)OCC2CCN(Cc3ccccc3)CC2)c2ccccc2)c1)N1C[C@H]2CCN(C(=O)c3ccc(CCNC[C@H](O)c4ccc(O)c5[nH]c(=O)ccc45)cc3)[C@H]2C1 [Compound 111]', 'pIC50', '8.52 to 9.52');

Would you kindly share the measured pIC50 for Cc1cccc(C(O)(C(=O)OCC2CCN(Cc3ccccc3)CC2)c2cccc(OCCCCCNC[C@H](O)c3ccc(O)c4[nH]c(=O)ccc34)c2)c1 (stereo partly shown) [Compound 5] ?
8.52 to 9.52

Can you check O=C1C=Cc2c([C@@H](O)CNCCC3CCN(C(=O)c4ccc(COc5cccc([C@](O)(C(=O)OCC6CCN(Cc7ccccc7)CC6)c6ccccc6)c5)cc4)CC3)ccc(O)c2C1 [Compound 33A] next?
8.52 to 9.52

Can you check O=C(COc1cccc([C@](O)(C(=O)OCC2CCN(Cc3ccccc3)CC2)c2ccccc2)c1)N[C@H]1C[C@H](NC(=O)c2ccc(CNC[C@H](O)c3ccc(O)c4[nH]c(=O)ccc34)c(C(F)(F)F)c2)C1 [Compound 138] next?
8.52 to 9.52

Can you check O=C(NCCOc1cccc([C@@](O)(C(=O)OCC2CCN(Cc3ccccc3)CC2)c2ccccc2)c1)c1ccc(CCNC[C@H](O)c2ccc(O)c3[nH]c(=O)ccc23)cc1 [Compound 34] next?
< 8.52

Can you check O=C(COc1cccc([C@](O)(C(=O)OCC2CCN(Cc3ccccc3)CC2)c2ccccc2)c1)NC1CN(C(=O)c2ccc(CNC[C@H](O)c3ccc(O)c4[nH]c(=O)ccc34)cc2)C1 [Compound 66] next?
8.52 to 9.52
